Biological target: human recombinant GSK3β (Homo sapiens, UniProt P49841)
Construct: purchased Promega Corporation, Madison, WI, USA (GSK3β Kinase Enzyme System)
Sequence (P49841 whole entry): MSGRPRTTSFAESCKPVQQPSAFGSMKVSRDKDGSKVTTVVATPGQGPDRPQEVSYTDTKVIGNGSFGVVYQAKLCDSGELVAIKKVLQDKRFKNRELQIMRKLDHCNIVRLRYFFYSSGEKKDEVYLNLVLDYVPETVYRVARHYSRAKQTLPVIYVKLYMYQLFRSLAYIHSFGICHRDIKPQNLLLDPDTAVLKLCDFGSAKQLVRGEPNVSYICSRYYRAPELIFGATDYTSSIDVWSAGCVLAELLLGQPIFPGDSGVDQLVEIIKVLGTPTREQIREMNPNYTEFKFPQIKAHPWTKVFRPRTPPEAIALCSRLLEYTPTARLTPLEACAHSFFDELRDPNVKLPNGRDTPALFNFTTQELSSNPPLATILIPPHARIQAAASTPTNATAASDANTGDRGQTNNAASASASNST
Test: GSK3β inhibition assay (GSK3β Kinase Enzyme System, ADP-Glo Kinase Assay)
Type: biochemical
Conditions: at 10 μM; read-out: percentage inhibition of GSK3β
Measurement kind: inhibition at 10 µM (%)

(I) O=C1Nc2ncccc2/C1=C\c1ccccn1 [(E)-2f]
(II) O=C1Nc2cc(Cl)ccc2/C1=C\c1ccccn1 [(E)-2c]
Task: Form field 'greater inhibition at 10 µM' accepts I or II ; which applies? Response format: the label of the selected entry.
Output: I
(I: 76.4%, II: 45%)

---

System: PBMC
Test: MTT assay, cytotoxicity on normal blood cells
Assay type: cell-based
Conditions: Homo sapiens, 72 h, read-out: IC50 (µM) after 72 h Drug Treatment, PBMC
Method: The human cervical carcinoma cell line HeLa, obtained from the American Type Culture Collection (ATCC), was cultured in Dulbecco’s modified Eagle’s medium (DMEM) supplemented with 5% heat-inactivated fetal bovine serum (FBS). […]
Measurement kind: IC50 (µM)
Respond with the bare value in µM.

Task: State its IC50 on PBMC: CN(C)c1ccc(C=C2C(=O)Nc3ncccc32)cc1 (mixture of isomers)
Output: 94.5

---

Molecular target: human recombinant GSK3β (Homo sapiens)
Construct: purchased Promega Corporation, Madison, WI, USA (GSK3β Kinase Enzyme System)
Experiment: GSK3β inhibition assay (GSK3β Kinase Enzyme System, ADP-Glo Kinase Assay)
Format: biochemical
Procedure: Screening of GSK3β inhibition activity for our new library was conducted using the […] luminescence assay to determine how much ATP is reduced after a kinase reaction. According to the manufacturer’s protocol, the assay was conducted using GSK3β Kinase Enzyme System and ADP-Glo Kinase Assay (Promega Corporation, Madison, WI, USA) in 384-well plates. […] Then, kinase activity was quantified using the ADP-Glo Kinase Assay as previously described.
Measurement kind: IC50

Task: // query IC50 value for entry O=C1Nc2ccccc2/C1=C\c1ccccn1 [(E)-2a]
Output: > 10 µM

---

Biological target: human recombinant GSK3β (Homo sapiens, UniProt P49841)
Construct: purchased Promega Corporation, Madison, WI, USA (GSK3β Kinase Enzyme System)
Assay: GSK3β inhibition assay (GSK3β Kinase Enzyme System, ADP-Glo Kinase Assay)
Type: biochemical
Details: read-out: IC50 (µM) GSK3β
Measurement kind: IC50 (µM)

Study these solved cases before continuing.
>  <Compound>
CCN(CC)c1ccc(/C=C2\C(=O)Nc3ncccc32)cc1 [(Z)-3b]

>  <IC50, µM>
3

$$$$
>  <Compound>
CN(C)c1ccc(/C=C2\C(=O)Nc3ncccc32)cc1 [(Z)-3a]

>  <IC50, µM>
1.9

$$$$
>  <Compound>
O=C1Nc2ncccc2/C1=C/c1ccncc1 [(Z)-3d]

>  <IC50, µM>
5.9

$$$$
>  <Compound>
CCN(CC)c1ccc(/C=C2/C(=O)Nc3ncccc32)cc1 [(E)-3b]

>  <IC50, µM>
3

$$$$

(A) O=C1Nc2ncccc2/C1=C\c1ccncc1 [(E)-3d]
(B) O=C1Nc2ncccc2/C1=C\c1ccccn1 [(E)-2f]
Task: I would appreciate it if you could say which entry, A or B , has the lower IC50 value. Response format: the label of the selected entry.
Output: B
(B: 1.7 µM, A: 5.9 µM)

Attribution: paper PMC9029746
